pIC50 listing for selected compounds.
- assay target: EGFR (UniProt P00533)
- Sequence (P00533 whole entry, looked up): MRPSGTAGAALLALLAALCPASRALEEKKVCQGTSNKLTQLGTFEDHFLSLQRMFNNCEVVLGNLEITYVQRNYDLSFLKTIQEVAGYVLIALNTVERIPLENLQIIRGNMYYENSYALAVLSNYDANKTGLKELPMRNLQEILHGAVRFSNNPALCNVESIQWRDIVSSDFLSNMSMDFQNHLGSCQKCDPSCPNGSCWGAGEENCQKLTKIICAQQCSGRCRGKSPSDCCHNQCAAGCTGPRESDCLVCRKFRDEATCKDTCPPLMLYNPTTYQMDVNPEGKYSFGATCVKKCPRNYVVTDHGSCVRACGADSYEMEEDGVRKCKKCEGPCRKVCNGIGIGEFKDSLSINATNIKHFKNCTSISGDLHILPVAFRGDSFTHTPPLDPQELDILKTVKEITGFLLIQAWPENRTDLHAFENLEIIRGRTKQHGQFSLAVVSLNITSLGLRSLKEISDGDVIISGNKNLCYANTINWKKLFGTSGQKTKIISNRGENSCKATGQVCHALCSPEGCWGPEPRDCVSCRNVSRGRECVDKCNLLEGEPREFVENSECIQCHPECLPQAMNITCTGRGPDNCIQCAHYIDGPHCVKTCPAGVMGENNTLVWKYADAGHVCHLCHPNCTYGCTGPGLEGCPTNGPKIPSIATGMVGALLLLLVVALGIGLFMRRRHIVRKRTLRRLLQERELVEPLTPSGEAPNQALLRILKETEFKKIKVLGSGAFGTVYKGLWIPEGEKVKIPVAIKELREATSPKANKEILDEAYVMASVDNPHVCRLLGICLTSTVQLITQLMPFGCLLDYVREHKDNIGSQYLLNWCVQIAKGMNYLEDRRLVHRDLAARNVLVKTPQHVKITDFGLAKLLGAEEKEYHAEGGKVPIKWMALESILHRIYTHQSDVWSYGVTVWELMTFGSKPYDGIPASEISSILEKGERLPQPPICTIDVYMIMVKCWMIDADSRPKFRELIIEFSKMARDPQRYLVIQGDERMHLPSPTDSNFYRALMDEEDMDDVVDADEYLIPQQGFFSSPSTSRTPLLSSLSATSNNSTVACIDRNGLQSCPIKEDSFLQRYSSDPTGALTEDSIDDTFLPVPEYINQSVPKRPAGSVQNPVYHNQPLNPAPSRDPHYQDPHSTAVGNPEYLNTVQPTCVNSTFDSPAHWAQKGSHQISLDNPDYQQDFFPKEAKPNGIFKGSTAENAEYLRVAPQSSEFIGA
pIC50: −log10 of the molar value.

smiles data	result
CCN1CCC(Nc2ccc3c(c2)/C(=C(\c2cc(F)cc(F)c2)c2ncc[nH]2)C(=O)N3)CC1	6.30 to 7.30

Please provide the recorded pIC50 for COCCN1CCC(Nc2ccc3c(c2)/C(=C(\c2cccc(F)c2)c2ncn[nH]2)C(=O)N3)CC1 , tested on EGFR (UniProt P00533).
< 5.30

Please provide the recorded pIC50 for CCN1CCC(Nc2ccc3c(c2)/C(=C(/c2nc(C)c[nH]2)c2cccc(F)c2F)C(=O)N3)CC1 , tested on EGFR (UniProt P00533).
6.30 to 7.30

Please provide the recorded pIC50 for COCCN1CCC(Nc2ccc3c(c2)/C(=C(\c2cccc(F)c2)c2ncc[nH]2)C(=O)N3)CC1 , tested on EGFR (UniProt P00533).
6.30 to 7.30

Please provide the recorded pIC50 for Cc1ccc(/C(=C2/C(=O)Nc3ccc(NC4CCN(C)CC4)cc32)c2ncc[nH]2)cc1 , tested on EGFR (UniProt P00533).
6.30 to 7.30

----------
- assay target: EGFR (UniProt P00533)
pIC50: −log10 of the molar value.
quantity measured: pIC50

Solved entries (count: 5):
smiles data	quantity measured	result
CCN1CCC(Nc2ccc3c(c2)/C(=C(\c2ccc(OC)cc2)c2ncc[nH]2)C(=O)N3)CC1	pIC50	5.30 to 6.30
CCN1CCC(Oc2ccc3c(c2)/C(=C(\c2cccc(OC)c2)c2nc4ccccc4[nH]2)C(=O)N3)CC1	pIC50	5.30 to 6.30
CCN1CCC(Nc2ccc3c(c2)/C(=C(\c2ccc(C)cc2)c2nc4cc(OC)ccc4[nH]2)C(=O)N3)CC1	pIC50	5.30 to 6.30
O=C1Nc2ccc(OC3CCN(Cc4ccccc4)CC3)cc2/C1=C(\c1ccccc1)c1nc2ccccc2[nH]1	pIC50	5.30 to 6.30
CCN1CCC(Nc2ccc3c(c2)/C(=C(\c2ccc(C)c(F)c2)c2nc(C)c[nH]2)C(=O)N3)CC1	pIC50	> 7.30

Entry CCN1CCC(Nc2ccc3c(c2)/C(=C(\c2ccc(F)cc2)c2nc(C)c[nH]2)C(=O)N3)CC1 : reported pIC50 = ?
6.30 to 7.30

Entry COCCN1CCC(Nc2ccc3c(c2)/C(=C(\c2ccccc2)c2nc4cc(Cl)ccc4[nH]2)C(=O)N3)CC1 : reported pIC50 = ?
< 5.30

Entry CCN1CCC(Nc2ccc3c(c2)/C(=C(/c2ncc[nH]2)c2ccc(C(F)(F)F)cc2F)C(=O)N3)CC1 : reported pIC50 = ?
6.30 to 7.30

Entry O=C1Nc2ccc(NC3CCNCC3)cc2/C1=C(\c1cccc(F)c1)c1ncc[nH]1 : reported pIC50 = ?
< 5.30

Entry CCN1CCC(Nc2ccc3c(c2)/C(=C(\c2cc(F)cc(F)c2)c2nc(C)c[nH]2)C(=O)N3)CC1 : reported pIC50 = ?
6.30 to 7.30

Entry CCOC(=O)c1[nH]c(/C(=C2\C(=O)Nc3ccc(NC4CCN(CCOC)CC4)cc32)c2cccc(F)c2)nc1C : reported pIC50 = ?
< 5.30

Entry COCCN1CCC(Nc2ccc3c(c2)/C(=C(\c2ccc(OC)cc2)c2ncc[nH]2)C(=O)N3)CC1 : reported pIC50 = ?
< 5.30

Entry CCN1CCC(Nc2ccc3c(c2)/C(=C(\c2ccc(C(F)(F)F)cc2)c2ncc[nH]2)C(=O)N3)CC1 : reported pIC50 = ?
5.30 to 6.30

Entry CCN1CCC(Nc2ccc3c(c2)/C(=C(/c2nc(C)c[nH]2)c2cc(F)c(Cl)cc2Cl)C(=O)N3)CC1 : reported pIC50 = ?
6.30 to 7.30

From: the Kinase Knowledgebase extract (Sharma et al. 2016)
